# experimental system: UniProtKB Q9UDY8
# Sequence (Q9UDY8 whole entry): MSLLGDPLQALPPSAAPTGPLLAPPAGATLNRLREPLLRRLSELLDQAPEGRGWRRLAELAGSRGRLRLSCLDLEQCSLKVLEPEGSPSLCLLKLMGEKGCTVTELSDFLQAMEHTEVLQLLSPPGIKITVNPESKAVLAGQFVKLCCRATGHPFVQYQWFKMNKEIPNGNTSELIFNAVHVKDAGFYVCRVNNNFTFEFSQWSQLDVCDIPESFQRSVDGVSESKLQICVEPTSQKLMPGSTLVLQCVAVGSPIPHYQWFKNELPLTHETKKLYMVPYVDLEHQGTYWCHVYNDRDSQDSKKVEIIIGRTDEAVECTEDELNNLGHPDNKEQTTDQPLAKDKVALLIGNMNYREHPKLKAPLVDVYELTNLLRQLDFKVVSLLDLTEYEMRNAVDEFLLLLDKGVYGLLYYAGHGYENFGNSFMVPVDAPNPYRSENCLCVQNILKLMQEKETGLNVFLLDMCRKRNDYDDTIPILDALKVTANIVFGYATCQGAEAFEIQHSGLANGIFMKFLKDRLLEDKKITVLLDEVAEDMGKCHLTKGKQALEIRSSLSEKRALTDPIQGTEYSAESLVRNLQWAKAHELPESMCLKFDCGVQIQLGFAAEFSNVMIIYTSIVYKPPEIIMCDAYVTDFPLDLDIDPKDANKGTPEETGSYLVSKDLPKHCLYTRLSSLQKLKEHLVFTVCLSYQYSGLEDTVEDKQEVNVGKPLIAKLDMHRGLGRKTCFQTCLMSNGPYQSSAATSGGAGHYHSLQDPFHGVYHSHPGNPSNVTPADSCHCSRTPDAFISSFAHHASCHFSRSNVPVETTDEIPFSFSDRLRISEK
# experimental details: MALT1 Protease Assay 1
test readout: IC50

{"columns": ["smiles record", "observed"],
 "data": [
  ["CC1(C)c2c(cnc3cc(Cl)nn23)N(C(=O)Nc2cnc(-n3nccn3)c(Cl)c2)C[C@H]1O", "< 0.01 µM"],
  ["C[C@@]1(C(F)(F)F)CN(C(=O)Nc2cnc([C@@H]3CCCO3)c(Cl)c2)c2cnc3cc(Cl)nn3c21", "0.01 to 0.1 µM"],
  ["C[C@]1(C2CC2)CN(C(=O)Nc2cnc(-n3nccn3)c(Cl)c2)c2cnc3cc(Cl)nn3c21", "0.01 to 0.1 µM"],
  ["C[C@@]1(C(F)(F)F)CN(C(=O)Nc2cnc([C@H]3CCCO3)c(Cl)c2)c2cnc3cc(Cl)nn3c21", "< 0.01 µM"]
]}

Query :: Entry C[C@@]1(C(F)(F)F)CN(C(=O)Nc2cnc(OC(F)F)c(Cl)c2)c2cnc3cc(Cl)nn3c21 : reported IC50 = ?
Result :: < 0.01 µM

Query :: Entry COc1ccc(NC(=O)N2C[C@@](C)(C(F)(F)F)c3c2cnc2cc(Cl)nn32)cc1Cl : reported IC50 = ?
Result :: < 0.01 µM

The origin of these recorded values is BindingDB's records for patent US20240018157.
